# subjectOfTest: MMP-1 (Homo sapiens)
# Sequence (P03956 100-469): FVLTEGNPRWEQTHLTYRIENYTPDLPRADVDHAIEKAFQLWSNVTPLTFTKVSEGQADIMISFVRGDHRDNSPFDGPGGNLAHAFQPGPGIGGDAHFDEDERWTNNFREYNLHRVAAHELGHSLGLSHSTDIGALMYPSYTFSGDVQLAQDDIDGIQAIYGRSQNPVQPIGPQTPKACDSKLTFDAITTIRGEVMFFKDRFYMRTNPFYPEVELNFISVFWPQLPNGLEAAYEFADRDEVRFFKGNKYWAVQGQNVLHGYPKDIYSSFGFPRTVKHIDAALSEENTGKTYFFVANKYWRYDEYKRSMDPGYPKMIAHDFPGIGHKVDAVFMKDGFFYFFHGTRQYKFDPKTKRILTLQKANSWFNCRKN
# assayProtocol: Assay for inhibition of collagenase
# particulars: human fibroblast collagenase activated with APMA; substrate fluorescein-labeled bovine type I collagen; 35°C, 2 hours, pH 7.5
Where a name gives a salt, the structure may show the parent alone.
metric: IC50 (nM)

{"compound": "COC(=O)[C@H](Cc1ccc(CNC(C)=N)cc1)NC(=O)[C@H](CC(C)C)[C@H](CCCc1ccccc1)C(=O)NO [Compound No. 9, hydrochloride]", "subjectOfTest": "MMP-1 (Homo sapiens)", "metric": "IC50", "recordedMeasurement": 30}
{"compound": "CC(C)C[C@@H](C(=O)N[C@@H](Cc1ccc(CN)cc1)C(=O)O)[C@H](CCCc1ccccc1)C(=O)NO [Compound No. 8, hydrochloride]", "subjectOfTest": "MMP-1 (Homo sapiens)", "metric": "IC50", "recordedMeasurement": 340}
{"compound": "CC(=N)NCc1ccc(C[C@H](NC(=O)[C@H](CC(C)C)[C@H](CCCc2ccccc2)C(=O)NO)C(=O)O)cc1", "subjectOfTest": "MMP-1 (Homo sapiens)", "metric": "IC50", "recordedMeasurement": 500}

[1] COC(=O)[C@H](Cc1ccc(CN)cc1)NC(=O)[C@H](CC(C)C)[C@H](CCCc1ccccc1)C(=O)NO
[2] CC(C)C[C@@H](C(=O)N[C@@H](Cc1ccc(CN)cc1)C(=O)O)[C@H](CCCc1ccccc1)C(=O)NO [Compound No. 11]
Between 1 and 2 , which one shows the larger IC50 value? When you have decided, please share the label of that item.
2
